Below: a set of entries, each annotated with reported protein stability index.
B1: CAMK2B (parent)
chain: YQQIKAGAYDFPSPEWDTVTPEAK

Variants of: B1
Assay: protein stability index of a GFP-peptide fusion (GPS, HEK-293T) (PSI 1-6); higher = more stable;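 note: lentivirally expressed fusions sorted by FACS into six bins by GFP to DsRed ratio, PSI derived from sequencing read proportions per bin multiplied by bin number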
Conditions: c terminus: a fixed tail appended

MUTANT	protein stability index
P14M	3.55
Q2I	2.28
D10L	2.4
Y9L	4.04
Q3T	3.28
P21F	2.78
